Biological target: Cytochrome P450 1A2 (Homo sapiens)
Assay: p450-cyp1a2 (AID 410)
Settings: recombinant CYP1A2, luciferin-ME demethylation, luminescence; series mostly up to 57 µM
Inconclusive results are not listed. Calls of active or inactive are those of the source. The call rests on the fitted dose curve.
The reply should be one of these categories: active, inactive

Example results:
chemical.smiles: Cc1cnc(CNc2cc(-c3ccccc3C(F)(F)F)ncn2)cn1
answer.label: active
//
chemical.smiles: CCNc1ncc2nc(-c3cn(C)c4ccccc34)c(=O)n(C[C@H]3CCCO3)c2n1
answer.label: active
//
chemical.smiles: O=C(c1ccco1)N1CCC2(CCN(Cc3nccs3)CC2)CC1
answer.label: inactive
//
chemical.smiles: CS(=O)(=O)N1CCC2(CCCN(C(=O)Nc3cccc(F)c3)C2)CC1
answer.label: inactive
//
chemical.smiles: CS(=O)(=O)Nc1cccc(-c2ccc3ncnc(NCc4cccs4)c3c2)c1
answer.label: active

Please state the recorded outcome for this compound: Cc1nc2cnc(Oc3ccccc3)nc2n(-c2ccccc2)c1=O
active

Please state the recorded outcome for this compound: COc1ccc(C[C@@H]2c3cc(OC)c(OC)cc3CC[N@+]2(C)CCC(=O)OCCCCCOC(=O)CC[N@@+]2(C)CCc3cc(OC)c(OC)cc3[C@H]2Cc2ccc(OC)c(OC)c2)cc1OC
inactive

Please state the recorded outcome for this compound: COc1ccc(-n2c(=O)c(-c3ccccc3)nc3cncnc32)cc1
active

Please state the recorded outcome for this compound: CN(Cc1ccco1)c1ncncc1-c1cccc(NS(C)(=O)=O)c1
active

Please state the recorded outcome for this compound: CCCCCCCNS(=O)(=O)c1cccc2c(Cl)cccc12
active

Please state the recorded outcome for this compound: CN1CCN(c2ncc3ncc(=O)n(Cc4cccs4)c3n2)CC1
active

Please state the recorded outcome for this compound: Cc1noc(C)c1-c1nc(N(C)C)c2ccccc2n1
active

Please state the recorded outcome for this compound: O=c1c(-c2cccs2)nc2cncnc2n1-c1ccccc1
active

Please state the recorded outcome for this compound: O=C(c1ccco1)N1CCC2(CC1)CN(c1ccccn1)C2
inactive

Please state the recorded outcome for this compound: CC(=O)NCCNc1ncnc2ccc(-c3ccccc3C#N)cc12
active

Please state the recorded outcome for this compound: COc1ccc(NC(=O)N2CC3(CCN(C(=O)c4ccncc4)CC3)C2)cc1
inactive

Please state the recorded outcome for this compound: c1ccc(C(c2ccccc2)N2CCCC3(CCNCC3)C2)cc1
active

Please state the recorded outcome for this compound: Cc1noc(C)c1-c1ccc2ncnc(N3CCOCC3)c2c1
active

Please state the recorded outcome for this compound: CC1(C)Oc2ccc(C#N)cc2[C@H](N2CCCC2=O)[C@H]1O
active

Please state the recorded outcome for this compound: COCCn1c(=O)c(C)nc2cncnc21
active

Please state the recorded outcome for this compound: COc1ccccc1CNc1ncnc2ccc(-c3cccc(C#N)c3)cc12
active

Please state the recorded outcome for this compound: CCNc1ncc2nc(-c3ccc(OC)cc3)c(=O)n(-c3ccc(OC)cc3)c2n1
inactive

Please state the recorded outcome for this compound: COc1ccccc1-c1nccc(NCc2ccccc2)n1
active

Please state the recorded outcome for this compound: Cn1cccc1C(=O)N1CCC[C@@]2(CCN(C(c3ccccc3)c3ccccc3)C2)C1
active

Please state the recorded outcome for this compound: COc1cccc(Cn2c(=O)c(-c3cccs3)nc3cnc(OCc4ccccc4)nc32)c1
active

Please state the recorded outcome for this compound: Cn1c(=O)c(-c2ccc(F)cc2)nc2cncnc21
active

Please state the recorded outcome for this compound: Cc1cccc(CNc2ccnc(-c3ccccc3C(F)(F)F)n2)c1
active

Please state the recorded outcome for this compound: N#Cc1cccc(NC(=O)N2CCC3(CC2)CCN(C(=O)c2cccc(F)c2)CC3)c1
inactive

Please state the recorded outcome for this compound: CN(C)C(=O)c1ccc(-c2nc(-n3ccnc3)c3ccccc3n2)cc1
active

---

Test system: TAB113
Experiment: qHTS profiling for inhibitors of Plasmodium falciparum proliferation (AID 504749); further: nearly all actives have a fitted effect of over 60% in size
Details: P. falciparum in erythrocytes, SYBR Green DNA, 72 h; series mostly up to 12.8 µM
Records with an inconclusive call do not appear. The source made the active and inactive calls. Calls come from the whole dose curve; as a rule, active = well fitted inhibition curve with a large enough effect; inconclusive = small, poorly fitted or top-dose-only effect; inactive = flat fitted curve, though single readings scatter.
The reply should be one of these categories: t (active), f (inactive)

Example results:
compound: CCN(CC)CCC[C@H](C)Nc1c2ccc(Cl)cc2nc2ccc(OC)cc12
answer.label: t
//
compound: CN[C@@H]1[C@H](O[C@@H]2O[C@H](CO)[C@@H](N)[C@H](O)[C@@H]2O)O[C@H]2C[C@@H](N)[C@@H](O[C@H]3[C@@H](O)[C@H](O)[C@H](N)C[C@@H]3N)O[C@H]2[C@H]1O
answer.label: f
//
compound: CCCN[C@@H](C)C(=O)Nc1c(C)csc1C(=O)OC
answer.label: f
//
compound: O=C(c1ccccc1)c1ccc2n1CC[C@H]2C(=O)O
answer.label: f
//
compound: CN(N=O)C(=O)N[C@H]1[C@@H](O)[C@H](O)[C@H](CO)O[C@@H]1O
answer.label: f

Please state the recorded outcome for this compound: CC(C)NC[C@H](O)c1cc(O)cc(O)c1
f

Please state the recorded outcome for this compound: C/C=C\C(=O)N(CC)c1ccccc1C
f

Please state the recorded outcome for this compound: CO/N=C(/C(=O)NC1C(=O)N2C(C(=O)O)=C(CSc3nc(=O)c(O)nn3C)CSC12)c1csc(N)n1 (stereo not given)
f

Please state the recorded outcome for this compound: CC(=O)Nc1c(I)c(C(=O)N[C@H]2[C@@H](O)[C@H](O)[C@H](CO)O[C@@H]2O)c(I)c(N(C)C(C)=O)c1I
f

Please state the recorded outcome for this compound: CC(C)(O/N=C(\C(=O)N[C@@H]1C(=O)N2C(C(=O)[O-])=C(C[n+]3ccccc3)CS[C@@H]12)c1csc(N)n1)C(=O)O
f

---

Biological target: Cytochrome P450 1A2 (Homo sapiens) (UniProt P05177)
Sequence (P05177 whole entry, looked up): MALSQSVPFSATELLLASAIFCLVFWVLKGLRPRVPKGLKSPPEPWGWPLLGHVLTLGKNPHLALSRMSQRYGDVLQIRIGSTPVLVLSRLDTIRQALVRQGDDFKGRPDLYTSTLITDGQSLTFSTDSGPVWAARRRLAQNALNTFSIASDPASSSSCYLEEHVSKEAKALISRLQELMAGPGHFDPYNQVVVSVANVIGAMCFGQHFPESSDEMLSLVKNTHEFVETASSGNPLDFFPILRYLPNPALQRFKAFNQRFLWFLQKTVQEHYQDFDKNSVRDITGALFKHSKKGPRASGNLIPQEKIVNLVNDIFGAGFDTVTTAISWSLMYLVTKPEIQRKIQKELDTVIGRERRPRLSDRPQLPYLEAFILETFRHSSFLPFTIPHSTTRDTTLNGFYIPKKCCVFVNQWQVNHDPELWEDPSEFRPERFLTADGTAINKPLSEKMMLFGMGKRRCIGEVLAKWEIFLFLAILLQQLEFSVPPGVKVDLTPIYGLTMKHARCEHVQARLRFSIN
Test: p450-cyp1a2 (AID 410)
Settings: recombinant CYP1A2, luciferin-ME demethylation, luminescence; series mostly up to 57 µM
Results filed as inconclusive are left out. Calls of active or inactive are those of the source. The call rests on the fitted dose curve.
The reply should be one of these categories: 1 (active), -1 (inactive)

Example results:
chemical.smiles: COc1ccccc1CNc1ccnc(-c2cccc(C#N)c2)n1
answer.label: 1
//
chemical.smiles: CN1CCN(c2ncc3nc(-c4ccc(Cl)cc4)c(=O)n(CCC#N)c3n2)CC1
answer.label: 1

Please state the recorded outcome for this molecule: Cc1ccccc1-c1nccc(-n2ccnc2)n1
1

Please state the recorded outcome for this molecule: COc1ccc(NC(=O)N2CC3(CCN(C(=O)c4csnn4)CC3)C2)cc1
-1

Please state the recorded outcome for this molecule: COc1ccc(NC(=O)N2CCC3(CC2)CCN(S(C)(=O)=O)CC3)cc1
-1

---

Molecular target: Cytochrome P450 2C9 (Homo sapiens) (UniProt P11712)
Sequence (P11712 whole entry, looked up): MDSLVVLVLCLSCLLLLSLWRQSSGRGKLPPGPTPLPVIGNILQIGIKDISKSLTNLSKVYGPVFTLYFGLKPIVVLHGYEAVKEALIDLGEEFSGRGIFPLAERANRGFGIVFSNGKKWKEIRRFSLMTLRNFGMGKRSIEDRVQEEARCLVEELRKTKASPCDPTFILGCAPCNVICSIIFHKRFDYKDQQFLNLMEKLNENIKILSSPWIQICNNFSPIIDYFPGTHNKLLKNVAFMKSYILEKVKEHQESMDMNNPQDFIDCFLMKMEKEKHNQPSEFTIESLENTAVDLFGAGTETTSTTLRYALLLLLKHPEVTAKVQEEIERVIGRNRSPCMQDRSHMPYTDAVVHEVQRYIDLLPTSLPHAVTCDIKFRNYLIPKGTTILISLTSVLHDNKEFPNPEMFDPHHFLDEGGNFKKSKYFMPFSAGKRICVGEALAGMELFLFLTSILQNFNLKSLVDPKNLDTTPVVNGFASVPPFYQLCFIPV
Test: qHTS Assay for Inhibitors and Substrates of Cytochrome P450 2C9 (AID 883); further: nearly all actives have a fitted effect of over 60% in size
Conditions: recombinant CYP2C9, luciferin-H luminescence, 60 min; series mostly up to 57.1 µM
Protocol: NIH Molecular Libraries Screening Centers Network [MLSCN] NIH Chemical Genomics Center [NCGC] MLSCN Grant: None NCGC Assay Overview: The P450 gene superfamily is involved in the metabolism and clearance of xenobiotics. […] The luciferin is then measured by luminescence after the addition of a luciferase detection reagent. […] Inhibitors and some substrates limit the production of luciferin, and decrease measured luminescence. […]
Results filed as inconclusive are left out. The source made the active and inactive calls. Calls come from the whole dose curve; as a rule, active = well fitted inhibition curve with a large enough effect; inconclusive = small, poorly fitted or top-dose-only effect; inactive = no such curve, though single readings can be large or run the other way.
The reply should be one of these categories: true (1) for active, false (0) for inactive

Example results:
chemical.smiles: COc1ccccc1CCn1c(=O)c(-c2ccc(F)c(F)c2)nc2cncnc21
answer.label: true (1)

chemical.smiles: COc1cccc(-c2cncnc2NCc2cccs2)c1
answer.label: true (1)

chemical.smiles: O=c1c(-c2ccc(F)c(F)c2)nc2cncnc2n1Cc1ccccc1Cl
answer.label: true (1)

chemical.smiles: COc1cc(=O)n(C)c2c(OC[C@@H](O)C(C)(C)O)cccc12
answer.label: false (0)

chemical.smiles: C[C@@H](C[N+](C)(C)C)OC(N)=O
answer.label: false (0)

Please state the recorded outcome for this molecule: O=C(O)[C@H]1CCCN(CCC=C(c2ccccc2)c2ccccc2)C1
true (1)

Please state the recorded outcome for this molecule: COc1cccc(Cn2c(=O)c(CCc3ccccc3)nc3cnc(OC)nc32)c1
true (1)

Please state the recorded outcome for this molecule: COc1cccc(Cn2c(=O)cnc3cnc(Oc4cccc(Cl)c4)nc32)c1
true (1)

---

Biological target: Glucocorticoid receptor (Homo sapiens) (UniProt P04150)
Sequence (P04150 whole entry, looked up): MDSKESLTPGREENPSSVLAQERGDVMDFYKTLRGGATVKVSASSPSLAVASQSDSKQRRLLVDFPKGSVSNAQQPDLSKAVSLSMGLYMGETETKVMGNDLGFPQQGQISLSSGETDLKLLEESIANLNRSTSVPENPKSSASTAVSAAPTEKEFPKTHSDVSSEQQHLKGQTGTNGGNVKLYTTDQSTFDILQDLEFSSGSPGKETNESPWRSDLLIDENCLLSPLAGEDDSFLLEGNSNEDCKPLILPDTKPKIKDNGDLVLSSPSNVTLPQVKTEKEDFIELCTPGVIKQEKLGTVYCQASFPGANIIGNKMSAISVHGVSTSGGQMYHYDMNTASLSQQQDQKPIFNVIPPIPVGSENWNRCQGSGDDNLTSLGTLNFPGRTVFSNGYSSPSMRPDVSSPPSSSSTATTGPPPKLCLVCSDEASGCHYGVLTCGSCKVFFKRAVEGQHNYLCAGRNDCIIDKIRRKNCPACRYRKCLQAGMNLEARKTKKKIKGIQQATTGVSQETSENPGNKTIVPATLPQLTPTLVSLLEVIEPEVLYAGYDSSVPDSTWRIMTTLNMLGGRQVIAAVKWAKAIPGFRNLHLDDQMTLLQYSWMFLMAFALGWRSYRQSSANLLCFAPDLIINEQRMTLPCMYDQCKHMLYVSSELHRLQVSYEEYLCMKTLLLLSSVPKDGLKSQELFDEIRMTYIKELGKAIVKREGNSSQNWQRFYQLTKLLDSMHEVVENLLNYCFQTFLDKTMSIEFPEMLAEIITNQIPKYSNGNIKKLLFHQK
Test: GR-EFC Redistribution (AID 451); further: potency means the concentration at half of the fitted maximal effect
Settings: CHO-K1 GR-EFC translocation, beta-gal luminescence, 2 h
The source made the active and inactive calls. Calls follow the shape of the full dose curve.
property.name: Potency

chemical.smiles: COc1ccc(NC(=O)N2CC3(CCN(C(=O)c4cnccn4)CC3)C2)cc1
system: Glucocorticoid receptor (Homo sapiens) (UniProt P04150)
property.name: Potency
result: > 46 µM (inactive)
//
chemical.smiles: CN1CCN(c2ccnc(-c3cccnc3)n2)CC1
system: Glucocorticoid receptor (Homo sapiens) (UniProt P04150)
property.name: Potency
result: > 46 µM (inactive)
//
chemical.smiles: COc1ccc(C(=O)N2CCC[C@@]3(CCN(c4ncccn4)C3)C2)cc1
system: Glucocorticoid receptor (Homo sapiens) (UniProt P04150)
property.name: Potency
result: > 46 µM (inactive)
//
chemical.smiles: Cc1noc(C)c1-c1nccc(N(C)C)n1
system: Glucocorticoid receptor (Homo sapiens) (UniProt P04150)
property.name: Potency
result: > 46 µM (inactive)
//
chemical.smiles: CN1CCN(c2ncncc2-c2ccoc2)CC1
system: Glucocorticoid receptor (Homo sapiens) (UniProt P04150)
property.name: Potency
result: > 46 µM (inactive)

Summary: COc1ccc(NC(=O)N2CCCC3(CCN(C(=O)c4ccco4)CC3)C2)cc1 , Glucocorticoid receptor (Homo sapiens) (UniProt P04150), Potency = > 46 µM (inactive)

// provenance: PubChem BioAssay (NCATS)
